Hello, the source for this data is paper PMC3546743, in case you need it.

Tested on: modified aptamer M3.2 (DNA, aptamer) ACTCATCTGTGAAGAGAAGCAGCACAGAGGTCAGATGTCCGTCAGCCCCGATCGCCATCCAGGGACTCCCCCCTATGCCTATGCGTGCTACCGTGAA
Assay: gold nanoparticle colorimetric assay, UV-Vis
Details: 250 mM NaCl; 1 µL of 50 mM compound in DMF added; room temperature; thiol oligos on gold nanoparticles
outcome measure: binding

{"columns": ["smiles structure", "binding"],
 "data": [
  ["CN(C)Cc1c[nH]c2ccccc12", "no"],
  ["CN1C[C@H](CN)C[C@@H]2c3cccc4c3c(cn4C)C[C@H]21", "yes"],
  ["CN1C[C@H](CNC(=O)OCc2ccccc2)C[C@@H]2c3cccc4c3c(cn4C)C[C@H]21", "yes"],
  ["O=C(N[C@H](CO)[C@H](O)c1ccc([N+](=O)[O-])cc1)C(Cl)Cl", "no"]
]}

Exercise: Suppose we examine the compound `CC(C)[C@H]1C(=O)N2CCC[C@H]2[C@]2(O)O[C@](NC(=O)[C@@H]3C=C4c5cccc6[nH]cc(c56)C[C@H]4N(C)C3)(C(C)C)C(=O)N12` ; what binding value has been reported?
Solution: no

Exercise: Could you do the same for `NCCc1c[nH]c2ccccc12` , please?
Solution: no

Exercise: Could you do the same for `N[C@@H](Cc1c[nH]c2ccccc12)C(=O)O` , please?
Solution: no
